Entries with reported pKi on h-EP2 (Homo sapiens, UniProt P43116)
Sequence (P43116 whole entry): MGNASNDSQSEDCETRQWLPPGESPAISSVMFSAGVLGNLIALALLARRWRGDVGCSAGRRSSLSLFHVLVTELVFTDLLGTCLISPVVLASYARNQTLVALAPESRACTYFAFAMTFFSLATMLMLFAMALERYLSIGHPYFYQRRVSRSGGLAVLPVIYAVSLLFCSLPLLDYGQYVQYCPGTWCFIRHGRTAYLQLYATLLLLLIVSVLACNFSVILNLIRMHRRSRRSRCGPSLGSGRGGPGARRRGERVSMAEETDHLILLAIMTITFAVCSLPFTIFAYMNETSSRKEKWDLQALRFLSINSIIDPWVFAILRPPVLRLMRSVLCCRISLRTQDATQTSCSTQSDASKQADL
Answers are plain numbers, as −log10 of the molar value.

Examples with their reported pKi follow.
[
  {
    "COMPOUND": "O=C(O)c1ccc(CCN2C(=O)CC[C@@H]2/C=C\\C=C(/c2ccccc2)C(F)(F)F)cc1",
    "pKi": 7.00
  },
  {
    "COMPOUND": "CCC/C(C)=C/C=C\\[C@H]1CCC(=O)N1CCc1ccc(C(=O)O)cc1",
    "pKi": 7.10
  },
  {
    "COMPOUND": "CCCC/C=C/C=C\\[C@H]1CCC(=O)N1CCCc1ccc(C(=O)O)s1",
    "pKi": 7.36
  }
]

For the 4 compounds below, give their pKi values.
1. CCCC/C=C/C=C\[C@H]1CCC(=O)N1CCc1ccc(C(=O)O)cc1
2. C/C(=C\C=C/[C@H]1CCC(=O)N1CCc1ccc(C(=O)O)cc1)c1ccccc1
3. C/C(=C\C=C/[C@H]1CCC(=O)N1CCc1ccc(C(=O)O)cc1)CC1CCCC1
4. CCCC/C(C)=C/C=C\[C@H]1CCC(=O)N1CCCc1ccc(C(=O)O)s1 (single isomer, unassigned)

Result string:
[7.06, 6.13, 7.22, 7.22]
